# System: blackgrass
# EXPERIMENTAL_PROTOCOL: Test C preemergence
# Assay type: in vivo, Alopecurus myosuroides
# CONDITION_DETAILS: Preemergence, 500 g ai/ha; visual rating after 10 days, 0 to 100 scale (0 no effect, 100 complete control)
REPORTED_ENDPOINT: Plant response rating, Blackgrass

>>> print(df.to_string())
                            chemical_string  recorded_number
0  Cc1cccc2c1O[C@@H](C)CN2C(=O)c1cccc(-n2cnc(C#N)c2)c1               30
1  COc1ccc(-n2cnc(C(C)(C)O)n2)cc1C(=O)N1C[C@H](C)Oc2c(Cl)cccc21               80
2  COc1cc(C(=O)N2C[C@H](C)Oc3c(Cl)cccc32)cc(-n2cnc(C)n2)c1               90
3  COc1cc(C(=O)N2C[C@H](C)Oc3c(Cl)cccc32)cc(-n2cnc(C(C)(C)C)n2)c1               80

----------
# System: kochia
# EXPERIMENTAL_PROTOCOL: Test C preemergence
# Format: in vivo, Bassia scoparia
# CONDITION_DETAILS: Test C, preemergence, 125 g ai/ha; 0 to 100 scale (0 no effect, 100 complete control)
Threshold check on Kochia plant response rating: strictly below 70 is yes; on or above 70 is no.

>>> df
                                    molecule  class
 0  COC[C@H]1CN(C(=O)c2cc(-n3cnc(C(C)(C)C)n3)ccc2C)c2cccc(Cl)c2O1     no
 1  Cc1cccc2c1O[C@@H](C)CN2C(=O)c1cccc(-n2nccn2)c1    yes
 2  Cc1ccc(-n2cnc(C3(O)CCCC3)n2)cc1C(=O)N1C[C@H](C)Oc2c(Cl)cccc21     no
 3  CCc1ncn(-c2ccc(OC)c(C(=O)N3C[C@H](COC)Oc4c(Cl)cccc43)c2)n1     no
 4  COc1ccc(-n2cnc(C(C)C)n2)cc1C(=O)N1C[C@H](C)Oc2c(C)cccc21     no
 5  COc1cc(C(=O)N2C[C@H](C)Oc3c(Cl)cccc32)cc(-n2cnc(C)n2)c1     no
 6  C[C@H]1CN(C(=O)c2cccc(-n3cnc(C(C)(C)O)n3)c2)c2cccc(Cl)c2O1     no
 7  COc1ccc(-n2cncn2)cc1C(=O)N1C[C@H](C)Oc2ccccc21    yes
 8  Cc1ccc(-n2cnc(C3(C(F)(F)F)CCC3)n2)cc1C(=O)N1C[C@H](C)Oc2c(Cl)cccc21    yes
 9  COc1ccc(-n2cnc(C(C)(C)O)n2)cc1C(=O)N1C[C@H](C)Oc2c(Cl)cccc21     no
10  Cc1ccc(-n2cnc(C(C)C)n2)cc1C(=O)N1CC(C(F)(F)F)Oc2c(Cl)cccc21 (single isomer, unassigned)     no
11  CCn1cnc(-c2cccc(C(=O)N3C[C@H](C)Oc4c(Cl)cccc43)c2)n1    yes
12  Cc1ccc(-n2cnc(C3(C)COC3)n2)cc1C(=O)N1C[C@H](C)Oc2c(Cl)cccc21     no
13  Cc1cc(-n2cnc(C(C)C)n2)cc(C(=O)N2C[C@H](C)Oc3c(Cl)cccc32)c1F    yes
14  COC(=O)c1ncn(-c2ccc(C)c(C(=O)N3C[C@H](C)Oc4c(Cl)cccc43)c2)n1    yes
15  COc1cc(C(=O)N2C[C@H](C)Oc3c(Cl)cccc32)cc(-n2cnc(C(C)C)n2)c1     no
16  Cc1ccc(-n2cnc(C3(C(F)(F)F)CC3)n2)cc1C(=O)N1C[C@H](C)Oc2c(Cl)cccc21    yes
17  COC[C@H]1CN(C(=O)c2cc(-n3cnc(C(C)(C)O)n3)ccc2C)c2cccc(Cl)c2O1     no
18  Cc1cccc2c1O[C@@H](C)CN2C(=O)c1cccc(-n2cnc(C#C[Si](C)(C)C)n2)c1    yes
19  COC[C@H]1CN(C(=O)c2cc(-n3cnc(C4CCC4)n3)ccc2C)c2cccc(Cl)c2O1     no
20  COC[C@H]1CN(C(=O)c2cc(-n3cnc(C(C)C)n3)ccc2C)c2cccc(Cl)c2O1     no
21  COC[C@H]1CN(C(=O)c2cc(-n3cnc(C(C)C)n3)ccc2OC)c2cccc(Cl)c2O1     no
22  CCn1cnc(-c2cccc(C(=O)N3C[C@H](C)Oc4c(C)cccc43)c2)n1    yes
23  CC(C)c1ncn(-c2cc3c(c(C(=O)N4C[C@H](C)Oc5c(Cl)cccc54)c2)OCCO3)n1     no
24  CCc1ncn(-c2ccc(OC)c(C(=O)N3C[C@H](C)Oc4c(C)cccc43)c2)n1     no
25  CCc1ncn(-c2cc(OC)cc(C(=O)N3C[C@H](C)Oc4c(Cl)cccc43)c2)n1    yes
